# System: Escherichia coli 10536
# procedure.details: Minimum inhibitory concentration (agar 2-fold dilution)
# Format: cell-based
# assay.conditions: Escherichia coli; E. coli 10536; Muller-Hinton agar, 37° C., 20 hours; read-out: Minimum Inhibitory Concentration
# Protocol: The minimum inhibitory concentration was determined by diluting the test compounds according to 2-fold dilution, suspending them in Muller-Hinton agar medium, inoculating 2 μl of the suspension containing the test strains having 10^7 CFU (Colony Forming Unit) per 1 ml into the medium and then culturing the test strains at 37° C. for 20 hours.
quantity: MIC (µg/mL)
Form entry: value (µg/mL) — number only.

Worked examples, 2 compounds total:
INSERT INTO measurements (smiles_str, reported_measurement) VALUES
  ('Nc1nc(/C(=N/O[C@H](C(=O)O)c2ccc(O)c(O)c2)C(=O)N[C@@H]2C(=O)N3C(C(=O)[O-])=C(/C=C/C[n+]4cnc(N)c(N)c4N)CS[C@H]23)cs1', 0.016),
  ('Cc1c(N)nc[n+](C/C=C/C2=C(C(=O)[O-])N3C(=O)[C@@H](NC(=O)/C(=N\O[C@@H](C(=O)O)c4ccc(O)c(O)c4)c4csc(N)n4)[C@H]3SC2)c1N', 0.13);

From here, focus on the item given below.
**Q:** Tell me its MIC given Nc1nc(/C(=N/O[C@@H](C(=O)O)c2ccc(O)c(O)c2)C(=O)N[C@@H]2C(=O)N3C(C(=O)[O-])=C(/C=C/C[n+]4cnc(N)c(N)c4N)CS[C@H]23)cs1 as the entry.
**A:** 0.13
